# System: ASCT2 mRNA
# assay notes: ASCT2 gene expression (RT-qPCR) after ASCT2 gene silencing in human colon cancer HTC-116 cells
# Format: cell-based
# setup conditions: treatment 6 h, 72 h, 0.17% Lipofectamine 2000 or 0.1% Injectin, FIG. 20A
assay endpoint: ASCT2 mRNA relative abundance

| substance | result |
| --- | --- |
| 267/397/398 (sense CCGGUCCUGUACCGUCCUCAATT; antisense UUGAGGACGGUACAGGACCGGTT; siRNA; sugars by position and backbone not given here; further chemistry not fully specified) | significantly decreased |
| 267/399/400 (sense GGUCCUGUACCGUCCUCAATT; antisense UUGAGGACGGUACAGGACCTT; siRNA; sugars by position and backbone not given here; further chemistry not fully specified) | significantly decreased |
| 278/367/408 (sense UGCCACGGUCGCCUCUGAGAA; antisense UUCUCAGAGGCGACCGUGGCA; chemistry not given here) | significantly decreased |
